Hello, the source for this data is patent US20070003671A1, in case you need it.

This listing pairs molecules with measured Titratable Acidity (%) (48 Hours).
assay: Calcium salts, physical/chemical attributes in orange juice, 450 mg/100 mL calcium load; format: physicochemical; settings: 48 hours

molecule: O.O.O=P([O-])([O-])O.[Ca+2] [dicalcium phosphate dihydrate]
Titratable Acidity (%) (48 Hours): 0.682

molecule: O.O=C([O-])CCC(=O)[O-].[Ca+2] [calcium succinate monohydrate]
Titratable Acidity (%) (48 Hours): 0.607

molecule: O=C([O-])CC(O)C(=O)[O-].[Ca+2] (stereo not drawn) [calcium malate]
Titratable Acidity (%) (48 Hours): 0.641

molecule: O.O.[Ca+2].[Cl-].[Cl-] [calcium chloride dihydrate]
Titratable Acidity (%) (48 Hours): 0.620

molecule: O=P([O-])([O-])O.[Ca+2] [dicalcium phosphate anhydrous]
Titratable Acidity (%) (48 Hours): 0.674

molecule: O.O.O=C([O-])[C@H](O)[C@@H](O)C(=O)[O-].[Ca+2] [calcium L-tartrate dihydrate]
Titratable Acidity (%) (48 Hours): 0.545

molecule: O=C[O-].O=C[O-].[Ca+2] [calcium formate]
Titratable Acidity (%) (48 Hours): 0.620

molecule: CC(O)C(=O)[O-].CC(O)C(=O)[O-].O.O.O.O.O.[Ca+2] (stereo not drawn) [calcium lactate pentahydrate]
Titratable Acidity (%) (48 Hours): 0.657

molecule: O.O=P([O-])([O-])OCC(O)CO.[Ca+2] (stereo not drawn) [calcium glycerophosphate monohydrate]
Titratable Acidity (%) (48 Hours): 0.598

====

assay: Calcium salts, physical/chemical attributes in orange juice, 450 mg/100 mL calcium load; assay type: physicochemical; settings: 48 hours
This listing pairs molecules with measured Calcium - Juice (48 Hours).
quantityMeasured: Calcium - Juice (48 Hours) (mg/100 mL)

molecule: O.O=P([O-])(O)O.O=P([O-])(O)O.[Ca+2] [monocalcium phosphate monohydrate]
recordedNumber: 207

molecule: O=C[O-].O=C[O-].[Ca+2] [calcium formate]
recordedNumber: 206

molecule: O=C([O-])CC(O)C(=O)[O-].[Ca+2] (stereo not shown) [calcium malate]
recordedNumber: 213

molecule: O=C([O-])CC(O)(CC(=O)[O-])C(=O)[O-].O=C([O-])CC(O)(CC(=O)[O-])C(=O)[O-].[Ca+2].[Ca+2].[Ca+2] [tri-calcium citrate]
recordedNumber: 177

molecule: CC(O)C(=O)[O-].CC(O)C(=O)[O-].O.O.O.O.O.[Ca+2] (stereo not shown) [calcium lactate pentahydrate]
recordedNumber: 204

molecule: O=P([O-])([O-])[O-].O=P([O-])([O-])[O-].[Ca+2].[Ca+2].[Ca+2] [tricalcium phosphate]
recordedNumber: 182

molecule: O=P([O-])([O-])[O-].O=P([O-])([O-])[O-].[Ca+2].[Ca+2].[Ca+2] [tricalcium phosphate (fine), tricalcium phosphate]
recordedNumber: 197

molecule: O.O.O=C([O-])[C@H](O)[C@@H](O)C(=O)[O-].[Ca+2] [calcium L-tartrate dihydrate]
recordedNumber: 140

molecule: O.O=P([O-])([O-])OCC(O)CO.[Ca+2] (stereo not shown) [calcium glycerophosphate monohydrate]
recordedNumber: 187

molecule: O.O=C([O-])CCC(=O)[O-].[Ca+2] [calcium succinate monohydrate]
recordedNumber: 206

molecule: O.O.O.O=C([O-])/C=C/C(=O)[O-].[Ca+2] [calcium fumarate trihydrate]
recordedNumber: 202

molecule: O=C([O-])[O-].[Ca+2] [calcium carbonate]
recordedNumber: 200

molecule: O.O.O=P([O-])([O-])O.[Ca+2] [dicalcium phosphate dihydrate]
recordedNumber: 181

molecule: O=P([O-])([O-])O.[Ca+2] [dicalcium phosphate anhydrous]
recordedNumber: 203

molecule: O.O.[Ca+2].[Cl-].[Cl-] [calcium chloride dihydrate]
recordedNumber: 206

molecule: N[C@@H](CCC(=O)[O-])C(=O)[O-].O.O.O.O.[Ca+2] [calcium L-glutamate tetrahydrate]
recordedNumber: 207
